// values below are reported residual activity
target: Angiopoietin-1 receptor (Homo sapiens); conditions: at 10 µM
Please give a number only; it is taken to be in %.

{"compound": "NC(=O)c1ccc(-c2nc(-c3ccc4c(c3)OCCO4)c(-c3ccccn3)[nH]2)cc1", "reading unit": "%", "quantitative readout": 72}

Q: Which residual activity is reported for this compound? O=C(CCCc1ccc(-c2ccccc2F)cc1)Nc1ccc(O)cc1
Ans: 96

* * *

target: Proto-oncogene tyrosine-protein kinase Src (Homo sapiens) (UniProt P12931); conditions: at 1 µM
Sequence (P12931 2-536 limits assumed): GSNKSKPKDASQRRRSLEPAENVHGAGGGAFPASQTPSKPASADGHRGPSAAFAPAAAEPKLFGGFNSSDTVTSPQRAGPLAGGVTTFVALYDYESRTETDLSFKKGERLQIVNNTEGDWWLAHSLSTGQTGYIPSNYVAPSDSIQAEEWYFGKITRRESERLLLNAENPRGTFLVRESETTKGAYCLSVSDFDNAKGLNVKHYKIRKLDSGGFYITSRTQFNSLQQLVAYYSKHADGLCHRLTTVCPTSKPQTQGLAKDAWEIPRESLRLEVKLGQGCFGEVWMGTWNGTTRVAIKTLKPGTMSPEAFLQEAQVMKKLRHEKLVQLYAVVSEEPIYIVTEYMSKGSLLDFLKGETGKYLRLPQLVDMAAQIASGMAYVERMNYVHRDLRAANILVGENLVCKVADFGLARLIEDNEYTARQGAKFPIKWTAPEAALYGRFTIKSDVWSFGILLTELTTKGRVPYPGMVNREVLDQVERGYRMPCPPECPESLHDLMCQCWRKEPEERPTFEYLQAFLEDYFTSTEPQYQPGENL
// values below are reported residual activity
Please give a number only; it is taken to be in %.

# count of solved cases: 2
{"compound": "O=C1Nc2ccc(Cl)cc2/C1=C/c1cc(Cl)c(O)c(Cl)c1", "residual activity (%)": 84}
{"compound": "Cn1c2ccccc2c2c3c(c4c5ccccc5n(CCC#N)c4c21)CNC3=O", "residual activity (%)": 69}

Q: Which residual activity is reported for this compound? Nc1nccc(-c2c(-c3ccc(F)cc3)ncn2C2CCNCC2)n1
Ans: 117

Q: Would you mind doing COc1cc2c(cc1OC)-c1n[nH]c(Nc3cccc(F)c3)c1C2 as well?
Ans: 44

Q: Would you mind doing Nc1ncnc2[nH]nc(Nc3ccc(F)cc3)c12 as well?
Ans: 100

Q: Would you mind doing O=c1cc(N2CCNCC2)oc2c(-c3ccccc3)cccc12 as well?
Ans: 94

Q: Would you mind doing N#C/C(=C\c1ccc(O)c(O)c1)C(=O)NCc1ccccc1 as well?
Ans: 87

* * *

biological target: Tyrosine-protein kinase Fyn (Homo sapiens) (UniProt P06241); conditions: at 1 µM
Sequence (P06241 2-537 limits assumed): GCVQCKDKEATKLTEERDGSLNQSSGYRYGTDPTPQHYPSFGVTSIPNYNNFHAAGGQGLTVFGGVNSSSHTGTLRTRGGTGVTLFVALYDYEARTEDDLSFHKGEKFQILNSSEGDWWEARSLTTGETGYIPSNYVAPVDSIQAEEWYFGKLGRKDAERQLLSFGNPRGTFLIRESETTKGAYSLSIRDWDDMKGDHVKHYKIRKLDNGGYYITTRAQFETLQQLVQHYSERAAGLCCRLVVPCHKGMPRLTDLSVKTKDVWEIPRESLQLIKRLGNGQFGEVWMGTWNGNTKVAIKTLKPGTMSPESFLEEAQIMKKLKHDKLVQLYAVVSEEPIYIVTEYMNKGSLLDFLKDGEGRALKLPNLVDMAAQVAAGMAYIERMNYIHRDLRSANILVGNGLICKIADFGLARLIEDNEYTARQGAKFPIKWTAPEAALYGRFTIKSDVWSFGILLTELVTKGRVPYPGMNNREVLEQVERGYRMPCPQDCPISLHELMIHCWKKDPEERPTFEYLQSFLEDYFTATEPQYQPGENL
// values below are reported residual activity
Please give a number only; it is taken to be in %.

# count of solved cases: 2
{"smiles data": "CC(C)(C)n1nc(Cc2cccc3ccccc23)c2c(N)ncnc21", "quantitative readout": 30}
{"smiles data": "CCN1/C(=C/C(C)=O)Sc2ccc(OC)cc21", "quantitative readout": 80}

Q: Which residual activity is reported for this molecule? O=C(c1cc2cc(O)ccc2[nH]1)c1cc2cc(O)ccc2[nH]1
Ans: 7

* * *

// values below are reported residual activity
biological target: Ephrin type-B receptor 2 (Homo sapiens); conditions: at 10 µM
Please give a number only; it is taken to be in %.

# count of solved cases: 5
{"smiles data": "O=C(c1cc2cc(O)ccc2[nH]1)c1cc2cc(O)ccc2[nH]1", "reading unit": "%", "residual activity": 24}
{"smiles data": "Fc1ccc(-c2nc3n(c2-c2ccncc2)CCS3)cc1", "reading unit": "%", "residual activity": 91}
{"smiles data": "NC(=O)c1ccc(-c2nc(-c3ccc4c(c3)OCCO4)c(-c3ccccn3)[nH]2)cc1", "reading unit": "%", "residual activity": 24}
{"smiles data": "O=C1NC(=O)C(c2cn(CCCn3ccnc3)c3ccccc23)=C1Nc1ccccc1", "reading unit": "%", "residual activity": 122}
{"smiles data": "O=C1Cc2c([nH]c3ccc(Br)cc23)-c2ccccc2N1", "reading unit": "%", "residual activity": 120}

# next molecule below
Q: Which residual activity is reported for this molecule? CN([C@@H](Cc1ccc(OS(=O)(=O)c2cccc3cnccc23)cc1)C(=O)N1CCN(c2ccccc2)CC1)S(=O)(=O)c1cccc2cnccc12
Ans: 131

* * *

target: Ribosomal protein S6 kinase alpha-5 (Homo sapiens); details: at 10 µM
endpoint: residual activity (%)
Please give a number only; it is taken to be in %.

# count of solved cases: 2
{"smiles data": "CCN(CC)CCNC(=O)c1c(C)[nH]c(/C=C2\\C(=O)Nc3ccc(Cl)cc32)c1C", "endpoint": "residual activity", "reading unit": "%", "quantitative readout": 31}
{"smiles data": "O=C1Nc2ccccc2/C1=C\\c1c(Cl)[nH]c2ccccc12", "endpoint": "residual activity", "reading unit": "%", "quantitative readout": 71}

# next molecule below
Q: Which residual activity is reported for this molecule? NCCNc1ncc(C(N)=O)c(Nc2cccc(C(F)(F)F)c2)n1
Ans: 77

* * *

target: Fibroblast growth factor receptor 2 (Homo sapiens) (UniProt P21802); conditions: at 10 µM
Sequence (P21802 22-821 limits assumed): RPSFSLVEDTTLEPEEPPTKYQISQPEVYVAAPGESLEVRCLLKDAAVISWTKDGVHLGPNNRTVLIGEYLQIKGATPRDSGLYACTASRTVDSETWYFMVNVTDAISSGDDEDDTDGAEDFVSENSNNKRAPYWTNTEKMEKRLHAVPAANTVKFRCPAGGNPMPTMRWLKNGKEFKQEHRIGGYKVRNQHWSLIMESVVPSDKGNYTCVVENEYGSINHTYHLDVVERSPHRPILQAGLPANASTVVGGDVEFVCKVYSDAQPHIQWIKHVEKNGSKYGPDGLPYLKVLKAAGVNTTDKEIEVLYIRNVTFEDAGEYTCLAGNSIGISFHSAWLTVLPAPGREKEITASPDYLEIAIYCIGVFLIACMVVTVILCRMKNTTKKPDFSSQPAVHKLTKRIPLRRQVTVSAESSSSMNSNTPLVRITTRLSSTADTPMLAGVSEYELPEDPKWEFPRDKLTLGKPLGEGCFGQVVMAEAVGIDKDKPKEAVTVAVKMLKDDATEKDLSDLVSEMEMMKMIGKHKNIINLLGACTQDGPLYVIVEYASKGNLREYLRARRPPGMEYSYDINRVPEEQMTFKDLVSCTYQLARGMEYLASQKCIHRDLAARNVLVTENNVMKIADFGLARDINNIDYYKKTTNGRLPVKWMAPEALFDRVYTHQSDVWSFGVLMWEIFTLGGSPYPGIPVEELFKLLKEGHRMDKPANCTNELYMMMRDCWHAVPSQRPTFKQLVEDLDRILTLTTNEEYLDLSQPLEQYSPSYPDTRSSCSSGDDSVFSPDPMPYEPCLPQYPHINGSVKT
Label scheme for residual activity: low class (below 60%), middle class (60% to below 80%), high class (80% or more)

Consider the worked cases shown below.
{"compound": "CC(C)(C)n1nc(Cc2cccc3ccccc23)c2c(N)ncnc21", "qualitative label": "low class"}
{"compound": "CCOC(=O)c1c(C)[nH]c(/C=C2\\C(=O)Nc3ccccc32)c1C", "qualitative label": "high class"}

Q: Please let me know in which category the item c1ccc(-c2cnc(Nc3ccc(OCCN4CCCC4)cc3)s2)cc1 belongs.
Ans: low class

Q: Would you mind doing O=C1NC(=O)C(c2c[nH]c3ccccc23)=C1c1c[nH]c2ccccc12 as well?
Ans: low class

Q: Would you mind doing Nc1nccc(-c2c(-c3ccc(F)cc3)ncn2C2CCNCC2)n1 as well?
Ans: middle class

* * *

// values below are reported residual activity
Target: Dual specificity tyrosine-phosphorylation-regulated kinase 2 (Homo sapiens)
Sequence (whole entry): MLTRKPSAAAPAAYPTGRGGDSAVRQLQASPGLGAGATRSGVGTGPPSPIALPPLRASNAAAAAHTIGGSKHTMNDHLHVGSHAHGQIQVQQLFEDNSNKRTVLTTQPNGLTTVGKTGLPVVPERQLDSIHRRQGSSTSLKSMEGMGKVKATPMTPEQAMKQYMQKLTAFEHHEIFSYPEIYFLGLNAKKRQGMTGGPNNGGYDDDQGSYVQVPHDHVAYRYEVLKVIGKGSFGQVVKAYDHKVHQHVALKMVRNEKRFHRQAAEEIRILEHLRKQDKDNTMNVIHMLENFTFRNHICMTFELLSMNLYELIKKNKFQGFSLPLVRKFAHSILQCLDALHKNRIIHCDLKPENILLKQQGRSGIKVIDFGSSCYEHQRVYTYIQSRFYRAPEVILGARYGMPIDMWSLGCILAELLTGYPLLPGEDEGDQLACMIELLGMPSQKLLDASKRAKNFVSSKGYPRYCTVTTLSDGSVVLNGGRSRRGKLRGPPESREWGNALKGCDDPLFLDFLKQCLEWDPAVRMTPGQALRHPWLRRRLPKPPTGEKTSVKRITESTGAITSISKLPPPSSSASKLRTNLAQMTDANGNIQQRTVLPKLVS
Settings: at 1 µM
Please give a number only; it is taken to be in %.

# count of solved cases: 5
{"smiles data": "O=C1Cc2c([nH]c3ccc(Br)cc23)-c2ccccc2N1", "quantitative readout": 92}
{"smiles data": "Nc1n[nH]c2nc3ccccc3nc12", "quantitative readout": 92}
{"smiles data": "O=c1cc(N2CCNCC2)oc2c(-c3ccccc3)cccc12", "quantitative readout": 87}
{"smiles data": "CC(C)(C)n1nc(Cc2cccc3ccccc23)c2c(N)ncnc21", "quantitative readout": 109}
{"smiles data": "Nc1ncnc2c1c(-c1ccc(Oc3ccccc3)cc1)cn2C1CCCC1", "quantitative readout": 91}

# next compound below
Q: Which residual activity is reported for this compound? COc1ccc(-c2cnc3c(-c4ccsc4)cnn3c2)cc1
Ans: 100

* * *

molecular target: NUAK family SNF1-like kinase 1 (Homo sapiens) (UniProt O60285); conditions: at 10 µM
Sequence (O60285 whole entry): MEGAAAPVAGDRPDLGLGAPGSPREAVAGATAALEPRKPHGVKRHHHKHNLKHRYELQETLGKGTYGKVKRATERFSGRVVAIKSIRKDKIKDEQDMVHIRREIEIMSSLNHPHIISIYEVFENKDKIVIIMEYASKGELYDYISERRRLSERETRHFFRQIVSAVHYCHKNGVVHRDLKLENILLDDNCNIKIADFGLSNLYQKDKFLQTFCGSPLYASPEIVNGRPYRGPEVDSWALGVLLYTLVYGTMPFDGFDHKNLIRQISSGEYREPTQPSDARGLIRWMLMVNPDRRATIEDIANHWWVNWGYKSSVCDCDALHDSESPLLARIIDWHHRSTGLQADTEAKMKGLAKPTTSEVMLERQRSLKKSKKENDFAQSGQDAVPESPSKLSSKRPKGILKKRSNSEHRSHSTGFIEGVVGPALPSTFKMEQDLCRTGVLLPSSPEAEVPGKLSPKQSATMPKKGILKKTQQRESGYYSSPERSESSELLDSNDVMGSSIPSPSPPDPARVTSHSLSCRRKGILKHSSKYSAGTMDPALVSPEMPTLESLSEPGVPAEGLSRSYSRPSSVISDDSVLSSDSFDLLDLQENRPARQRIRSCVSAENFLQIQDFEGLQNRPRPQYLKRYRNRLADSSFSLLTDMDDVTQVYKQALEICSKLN
// values below are reported residual activity
Please give a number only; it is taken to be in %.

{"smiles data": "O=C1NC(=O)C(c2cn(CCCO)c3ncccc23)=C1c1cnccn1", "endpoint": "residual activity", "quantitative readout": 50}
{"smiles data": "CCCCc1c(-c2ccc(O)cc2)[nH]c2nccnc12", "endpoint": "residual activity", "quantitative readout": 16}
{"smiles data": "N#C/C(=C1/Nc2ccccc2S1)c1ccnc(NCCc2cccnc2)n1", "endpoint": "residual activity", "quantitative readout": 82}
{"smiles data": "CCN(CC)CCNC(=O)c1c(C)[nH]c(/C=C2\\C(=O)Nc3ccc(Cl)cc32)c1C", "endpoint": "residual activity", "quantitative readout": 6}

Q: Which residual activity is reported for this molecule? Nc1nccc(-c2c(-c3ccc(F)cc3)ncn2C2CCNCC2)n1
Ans: 77

Q: Would you mind doing O=C(c1cc2cc(O)ccc2[nH]1)c1cc2cc(O)ccc2[nH]1 as well?
Ans: 20

Q: Would you mind doing NC(=O)c1ccc(-c2nc(-c3ccc4c(c3)OCCO4)c(-c3ccccn3)[nH]2)cc1 as well?
Ans: 91

Q: Would you mind doing O=C1NC(=O)C(c2c[nH]c3ccccc23)=C1c1c[nH]c2ccccc12 as well?
Ans: 24

Q: Would you mind doing N#Cc1c(NC(=O)c2cccc3ccccc23)sc2c1CCCC2 as well?
Ans: 92

Q: Would you mind doing Cn1c2ccccc2c2c3c(c4c5ccccc5n(CCC#N)c4c21)CNC3=O as well?
Ans: 6

Q: Would you mind doing O=c1cc(N2CCNCC2)oc2c(-c3ccccc3)cccc12 as well?
Ans: 82

* * *

// values below are reported residual activity
target: Serine/threonine-protein kinase PAK 6 (Homo sapiens) (UniProt Q9NQU5); conditions: at 10 µM
Sequence (Q9NQU5 whole entry, looked up): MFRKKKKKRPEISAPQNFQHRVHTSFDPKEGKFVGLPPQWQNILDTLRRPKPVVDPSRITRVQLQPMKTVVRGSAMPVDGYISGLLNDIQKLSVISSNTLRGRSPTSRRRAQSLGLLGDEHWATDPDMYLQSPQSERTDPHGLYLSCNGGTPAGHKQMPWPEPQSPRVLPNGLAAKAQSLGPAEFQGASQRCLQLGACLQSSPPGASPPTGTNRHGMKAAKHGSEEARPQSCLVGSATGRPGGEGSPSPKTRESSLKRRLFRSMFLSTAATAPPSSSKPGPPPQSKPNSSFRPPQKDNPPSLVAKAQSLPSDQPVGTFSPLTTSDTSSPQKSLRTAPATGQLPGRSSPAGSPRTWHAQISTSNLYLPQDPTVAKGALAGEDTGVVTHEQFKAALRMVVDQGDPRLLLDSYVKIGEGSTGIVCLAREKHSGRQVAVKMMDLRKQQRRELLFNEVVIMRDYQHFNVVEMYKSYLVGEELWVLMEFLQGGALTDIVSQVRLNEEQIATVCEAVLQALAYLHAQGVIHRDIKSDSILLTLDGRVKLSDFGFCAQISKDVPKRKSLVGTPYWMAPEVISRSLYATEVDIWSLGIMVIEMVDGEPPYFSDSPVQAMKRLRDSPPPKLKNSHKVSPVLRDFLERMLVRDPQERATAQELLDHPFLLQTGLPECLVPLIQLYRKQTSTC
Express your answer as a number followed by its unit.

# count of solved cases: 3
{"smiles data": "CN(C)S(=O)(=O)c1ccc2c(c1)/C(=C/c1cc3c([nH]1)CCCC3)C(=O)N2", "residual activity": "50%"}
{"smiles data": "Cn1c2ccccc2c2c3c(c4c5ccccc5n(CCC#N)c4c21)CNC3=O", "residual activity": "2%"}
{"smiles data": "COc1cc2ncnc(Nc3cccc(Cl)c3)c2cc1OC", "residual activity": "87%"}

# next compound below
Q: Request: residual activity, test system Serine/threonine-protein kinase PAK 6 (Homo sapiens) (UniProt Q9NQU5), entry O=C1NC(=O)c2c1c1c3ccccc3[nH]c1n1cncc21
Ans: 73%

Sourced from ChEMBL document CHEMBL2218924
